# Test system: DMS-273
# protocol.description: NCI tumour cell line growth inhibition, 48 h
Activity calls are given as the source filed them. Rule as the data show it: active = GI50 up to about 1.1 µM and inactive = higher.
Reply using exactly one outcome from Yes for active, No for inactive

molecule	category
O=C(c1cccs1)N(C(=S)N1CCN(c2ccccn2)CC1)c1ccccc1	No
O=C(O)C1=Cc2cccc3cccc(c23)C1=O	No

Incoming: What was the test verdict on CC12C=CC(=O)C=C1CCC1C3CCC(O)(C(=O)CO)C3(C)CC(O)C12F (configuration not stated) ?
Outgoing: No

Incoming: Recorded test outcome, item "O=C1C=C(c2[nH]c3ccccc3c2C2=CC(=O)c3ccccc3C2=O)C(=O)c2ccccc21"
Outgoing: No

Incoming: // return assay outcome for COC1C(OC(=O)c2ccc(C)[nH]2)C(O)C(Oc2ccc3c(O)c(NC(=O)c4c[nH]c(C(=O)Nc5c(O)c6ccc(OC7OC(C)(C)C(OC)C(OC(=O)c8ccc(C)[nH]8)C7O)c(C)c6oc5=O)c4C)c(=O)oc3c2C)OC1(C)C (configuration not stated)
Outgoing: No

Incoming: Returns: the outcome recorded for CC12CCC([C@H](N3CCOCC3)/C1=N\OCCN1CCCC1)C2(C)C (some centres not stated) in this assay.
Outgoing: No

Incoming: What classification did "CN(C)CCNC(=O)c1ccc(Cl)c2c(Nc3ccc(S(N)(=O)=O)cc3)c3ccccc3nc12" end up with in this test?
Outgoing: No

Incoming: In this assay, the call recorded for C/C=C/C1=CC(=O)C(O)C1O (configuration not stated) was what?
Outgoing: No

Incoming: Entry "Cn1cc(NC(=O)[C@H]2CCC(N)=N2)cc1C(=O)NCCC(=N)N" : call = ?
Outgoing: No

Incoming: Tell me the recorded outcome of this test for "C=C(C)[C@@H]1CC[C@]2(C)CC[C@]3(C)[C@H](CC[C@@H]4[C@@]5(C)CC[C@H](O)C(C)(C)[C@@H]5CC[C@]43C)[C@@H]12" .
Outgoing: No

Incoming: What did the test return for COc1nc2c(c(O)c(C)c(=O)n2OC2OC(COC(C)=O)C(OC(C)=O)C(OC(C)=O)C2OC(C)=O)c(=O)n1C (configuration not stated) ?
Outgoing: No

----------
# Test system: HT-29
# protocol.description: NCI tumour cell line growth inhibition, 48 h
The source made the active and inactive calls. No stated cut-off is given here; in the data, active = GI50 up to about 1.1 µM and inactive = higher.
observation.type: GI50

Completed entries (count: 2):
molecule	GI50
CCCCCCCSc1nc2c(C(=O)OCC)ncn2c2ccccc12	> 100 µM (inactive)
C[C@]12CC(C#N)C(=O)C(O)=C1CC[C@@H]1C2CC[C@@]2(C)C1CC[C@@H]2O (stereo partly specified)	> 100 µM (inactive)

Incoming: Return reported GI50; argument: C[C@H](CC[C@@H](O)C(C)(C)O)[C@H]1CC[C@@]2(C)[C@@H]3CC=C4[C@@H](CC[C@H](OC5OC(CO)C(O)C(O)C5O)C4(C)C)[C@]3(C)C(=O)C[C@]12C (stereo partly specified)
Outgoing: 26.1 µM (inactive)

Incoming: Entry under review: "O=C(O)C1=Cc2cccc3cccc(c23)C1=O" . Reported GI50?
Outgoing: > 100 µM (inactive)

Incoming: Form field: reported GI50 of CC(=O)CCN1CC2CN=NC2(C#N)C1 (stereo unspecified)
Outgoing: > 100 µM (inactive)

Incoming: Suppose we examine the molecule "O=c1ssc(Cl)c1Cl" ; what GI50 value has been reported?
Outgoing: > 10 µM (inactive)

Incoming: Report GI50 for "COC(=O)c1cc2cc(OC)c(OC)cc2cc(C(=O)OC)c1=O" please.
Outgoing: > 100 µM (inactive)

Incoming: I'd like to know its GI50. The molecule in question is C/C=C\C(CC(=O)NCCC1CN(S(=O)(=O)c2ccc(C)cc2)c2ccccc21)CC(=O)OC (stereo unspecified)
Outgoing: > 100 µM (inactive)

Incoming: What GI50 value was documented for this molecule, O=C1CCCc2cc3c(cc21)CC1(C3)Cc2ccc3c(c2C1)C(=O)CCC3 (stereo unspecified) ?
Outgoing: 16.3 µM (inactive)

Incoming: Return reported GI50; argument: "O=C(N/N=C/c1ccccc1)c1c(F)c(F)c(F)c(F)c1F"
Outgoing: 54.2 µM (inactive)

Incoming: Recorded GI50 of "COc1cc(C(=O)C/C(CCC(=O)Nc2ccc(Cl)cc2Cl)=N/Nc2nnc(C)n2N)ccc1O" , please.
Outgoing: > 100 µM (inactive)

----------
# Tested on: M14
# protocol.description: NCI tumour cell line growth inhibition, 48 h
Active and inactive are the calls of the source. Cut-off read from the data, not from the text of the source: active = GI50 up to about 1.1 µM and inactive = higher.
Entries annotated with measured GI50

Previously resolved entries follow.
> print(dat)
                                   compound  experimental.target  observation.type  observed.measurement
1  COc1ccc(N2C(=O)CC(c3c[nH]c4ncccc34)C2=O)cc1 (stereo not given)                  M14              GI50      23 µM (inactive)
2  O=C(c1cccs1)N(C(=O)N1CCN(c2ccccc2)CC1)S(=O)(=O)c1ccccc1                  M14              GI50    17.7 µM (inactive)
3  Cc1nnc2n1-c1ccccc1C(=S)N1CSCC21 (stereo not given)                  M14              GI50   > 100 µM (inactive)
4  C[C@]12CC(C#N)C(=O)C(O)=C1CC[C@@H]1C2CC[C@@]2(C)C1CC[C@@H]2O (stereo not given in full)                  M14              GI50    65.5 µM (inactive)
5                    Cc1c(C(=N)N)oc2ccccc12                  M14              GI50   > 100 µM (inactive)
6  CCOC1=C2N=C(C(CC)c3ccccc3F)N=C2C(=O)c2ccccc21 (stereo not given)                  M14              GI50   > 100 µM (inactive)
7         CCC(=O)CC(=O)CCC(=O)Nc1cc(C)ccc1C                  M14              GI50   > 100 µM (inactive)
8  CN(C)CCCNc1c2c(=O)n(C)c(=O)nc-2n(C)c2ccccc12                  M14              GI50    5.02 µM (inactive)
9  O=C1C(Cl)=C(NCCOCCO)C(=O)c2c(O)ccc(O)c21                  M14              GI50    11.2 µM (inactive)

Query compound follows.
Incoming: Return GI50 measured with M14 given this compound: OCCNc1ncnc2c1ncn2C1OC(CO)C(O)C1O (stereo not given)
Outgoing: > 100 µM (inactive)

----------
Known GI50 of a selection of molecules
# Test system: EKVX
# protocol.description: NCI tumour cell line growth inhibition, 48 h
Active and inactive are the calls of the source. No stated cut-off is given here; in the data, active = GI50 up to about 1.1 µM and inactive = higher.

Example entries and their recorded answers appear below.
> print(dat)
                                    molecule  observation.type  observed.measurement
 1  O=C1NC(=S)NC(=O)C1=Cc1cccc2cc3ccccc3cc12              GI50    2.91 µM (inactive)
 2                 Cc1nc2[nH]ccn2c(=O)c1CCCl              GI50   > 100 µM (inactive)
 3  COc1ccc(C2=NN(c3ccccc3)C[N+](c3ccc(C)cc3)=N2)cc1              GI50    44.3 µM (inactive)
 4  COc1cc2c3c(c1O)-c1c(ccc(OC)c1OC)CC3N(C)CC2 (stereo unspecified)              GI50   > 100 µM (inactive)
 5               COc1cc(/C=N/N=C(\N)NO)ccc1O              GI50    71.9 µM (inactive)
 6  COc1cc(CNCc2cc(OC)c(OC)c(OC)c2)cc(OC)c1OC              GI50    > 10 µM (inactive)
 7  CCCCCOP(=O)(OCCCCC)C(NC(C)=O)(C(=O)OCC)C(F)(F)F (stereo unspecified)              GI50   > 100 µM (inactive)
 8  Cn1cnc([N+](=O)[O-])c1Sc1nc2cc(Cl)c(F)cc2[nH]1              GI50    1.38 µM (inactive)
 9  O=C1CSC(c2c[nH]c3ccccc23)N1c1ccc(Cl)cc1Cl (stereo unspecified)              GI50   > 100 µM (inactive)
10  Cc1cccc(NS(=O)(=O)c2ccc3c(c2)OCCOCCOCCOCCO3)c1              GI50   > 100 µM (inactive)

API: the following record is the query input.
Incoming: Fill in the blank: the reported GI50 of N#C/C(=C1\OC(=N)C(c2ccc(Cl)cc2Cl)C1=O)c1ccc(Cl)cc1Cl (stereo unspecified) is ____.
Outgoing: 24.2 µM (inactive)
